The measured values listed here are drawn from patent US20210009564A1.

Biological target: Human Calpain 1/NS1 (Homo sapiens)
Sequence (P07384 whole entry): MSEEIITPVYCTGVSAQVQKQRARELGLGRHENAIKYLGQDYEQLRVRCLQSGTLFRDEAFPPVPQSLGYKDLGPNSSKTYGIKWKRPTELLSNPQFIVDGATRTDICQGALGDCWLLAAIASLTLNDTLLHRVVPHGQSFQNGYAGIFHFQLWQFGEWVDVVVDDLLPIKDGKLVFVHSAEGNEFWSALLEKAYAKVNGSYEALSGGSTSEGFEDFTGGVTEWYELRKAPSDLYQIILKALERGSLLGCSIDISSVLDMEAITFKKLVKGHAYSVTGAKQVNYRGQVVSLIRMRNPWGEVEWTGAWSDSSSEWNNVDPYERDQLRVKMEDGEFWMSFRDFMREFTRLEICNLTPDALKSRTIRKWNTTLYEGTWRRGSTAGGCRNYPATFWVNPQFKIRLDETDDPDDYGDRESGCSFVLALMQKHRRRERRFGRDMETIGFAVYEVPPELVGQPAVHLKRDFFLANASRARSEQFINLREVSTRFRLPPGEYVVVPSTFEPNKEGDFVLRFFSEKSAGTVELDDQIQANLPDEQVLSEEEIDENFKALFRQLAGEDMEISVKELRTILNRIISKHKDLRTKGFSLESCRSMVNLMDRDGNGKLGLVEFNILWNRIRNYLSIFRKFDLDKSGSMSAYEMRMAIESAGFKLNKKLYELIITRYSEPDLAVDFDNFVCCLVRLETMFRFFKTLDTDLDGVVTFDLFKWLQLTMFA
Sequence (P04632 whole entry partner): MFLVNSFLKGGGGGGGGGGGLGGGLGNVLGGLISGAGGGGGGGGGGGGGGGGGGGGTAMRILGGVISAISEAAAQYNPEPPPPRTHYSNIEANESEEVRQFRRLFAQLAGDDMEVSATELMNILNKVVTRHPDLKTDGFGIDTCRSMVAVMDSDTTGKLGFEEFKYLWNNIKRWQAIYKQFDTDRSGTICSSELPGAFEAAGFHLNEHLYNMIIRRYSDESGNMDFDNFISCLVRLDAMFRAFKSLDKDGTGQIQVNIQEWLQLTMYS
Test: Calpain inhibition, continuous fluorescence (FRET substrate) assay, calpain 1
Details: SensoLyte 520 FRET substrate, 25C
pIC50: −log10 of the molar value. Counter-ions that a name gives are not always drawn.
quantity: pIC50

Some entries whose results are on file:
- compound: "Cn1cc(C(=O)NC(Cc2ccccc2)C(=O)C(N)=O)c(-c2cccc3c2cnn3C)n1 (centres unmarked) [Compound 32]"
  pIC50: "> 5.52"
- compound: "Cn1cc(C(=O)NC(Cc2ccccc2)C(=O)C(N)=O)c(-c2cccc3cn(C)nc23)n1 (centres unmarked) [Compound 99]"
  pIC50: "> 5.52"
- compound: "O=C(NC(Cc1ccccc1)C(=O)Nc1ncco1)c1nsnc1-c1ccccc1 (centres unmarked) [Compound 57]"
  pIC50: "< 5.00"
- compound: "Cc1cc(C(=O)NC(Cc2ccccc2)C(=O)C(N)=O)n(-c2ncc(-c3ccccc3)cn2)n1 (centres unmarked) [Compound 30]"
  pIC50: "> 5.52"
- compound: "Cn1cc(C(=O)NC(Cc2ccccc2)C(=O)C(N)=O)c(-n2cnc3ccccc32)n1 (centres unmarked) [Compound 9]"
  pIC50: "> 5.52"
- compound: "CC(C)n1ncc2c(-c3nn(C)cc3C(=O)NC(Cc3ccccc3)C(=O)C(N)=O)cccc21 (centres unmarked) [Compound 100]"
  pIC50: "> 5.52"
- compound: "N#CC(Cc1ccccc1)NC(=O)c1nsnc1-c1ccccc1 (centres unmarked) [Compound 82]"
  pIC50: "< 5.00"
- compound: "CC(C)n1c(=O)[nH]c2c(-c3nn(C)cc3C(=O)NC(Cc3ccccc3)C(=O)C(N)=O)cccc21 (centres unmarked) [Compound 103]"
  pIC50: "> 5.52"
- compound: "Cn1cc(C(=O)NC(Cc2ccccc2)C(=O)C(N)=O)c(N2CCNCC2)n1 (centres unmarked) [Compound 2, HYDROCHLORIDE]"
  pIC50: "< 5.00"
- compound: "NC(=O)C(=O)C(Cc1ccccc1)NC(=O)c1cnoc1-c1cccc2c1OCO2 (centres unmarked) [Compound 5]"
  pIC50: "> 5.52"

Per the record, O=C(O)C(=O)C(Cc1ccccc1)NC(=O)c1nsnc1-c1cccc2oc(=O)[nH]c12 (centres unmarked) [Compound 106] has pIC50 of > 5.52

Per the record, NC(=O)C(=O)C(Cc1ccccc1)NC(=O)c1nsnc1-c1coc(Cl)c1 (centres unmarked) [Compound 52] has pIC50 of > 5.52

Per the record, Cn1cc(C(=O)NC(Cc2ccccc2)C(=O)C(N)=O)c(-c2cccc3ncsc23)n1 (centres unmarked) [Compound 6] has pIC50 of > 5.52

Per the record, Cc1nc(-c2cccc3sccc23)c(C(=O)NC(Cc2ccccc2)C(=O)C(N)=O)o1 (centres unmarked) [Compound 88] has pIC50 of > 5.52
